- TARGET_OF_ASSAY: T1, human CD73-His protein (human, UniProt P21589 27-549)
- T1 sequence: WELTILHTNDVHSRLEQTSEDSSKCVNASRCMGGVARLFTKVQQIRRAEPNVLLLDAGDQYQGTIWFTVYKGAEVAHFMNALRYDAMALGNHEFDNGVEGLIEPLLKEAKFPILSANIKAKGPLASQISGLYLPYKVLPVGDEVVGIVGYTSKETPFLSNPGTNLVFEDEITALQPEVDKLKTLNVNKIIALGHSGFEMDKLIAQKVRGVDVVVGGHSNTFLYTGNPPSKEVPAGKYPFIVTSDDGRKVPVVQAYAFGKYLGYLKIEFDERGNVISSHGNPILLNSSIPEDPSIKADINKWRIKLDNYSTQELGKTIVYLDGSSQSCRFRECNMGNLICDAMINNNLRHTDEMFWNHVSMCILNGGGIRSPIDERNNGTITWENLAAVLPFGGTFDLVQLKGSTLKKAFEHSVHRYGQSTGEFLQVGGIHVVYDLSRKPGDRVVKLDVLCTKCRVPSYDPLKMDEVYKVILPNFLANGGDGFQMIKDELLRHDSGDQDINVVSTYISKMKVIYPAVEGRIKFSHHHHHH
- ASSAY_NAME: cell-based or functional assay
MEASURED_QUANTITY: IC50 (nM), inhibition of enzyme activity of soluble CD73-His (AMP/ATP, Cell Titer-Glo)

BINDER	RESULT
56B10-HuV33 (antibody, human IgG4, V domains shown, Humanized) VH: QVQLQQSGAEVKKPGASVKVSCKASGYTFTRYYIYWVRQRPGQGLEWIGWIYPGNFNTKYNEKFKGRATLTADTSASTAYMELSSLTSEDTAVYYCARDVYDYAGFAYWGQGTLVTVSS VL: DIQMTQSPSFLSASVGDRVTITCKASQGVATAVAWYQQKPGKSPKLLIYWASTRHTGVPSRFSGSGSGTEFTLTISSLQPEDFATYFCQQYSSYPWTFGQGTKVEIK	4.13 nM
